B1: library; numbered along this chain (parent)
chain: MATDAALRRLLRLHRTEIAVAVDSAFPLLHALADHDVVPEDKFQETLHLKEKEGCPQAFHALLSWLLTQDSTAILDFWRVLFKDYNLERYGRLQPILDSFPKDVDLSQPRKGRKPPAVPKALVPPPRLPTKRKASEEARAAAPAALTPRGTASPGSQLKAKPPKKPESSAEQQRLPLGNGIQTMSASVQRAVAMSSGDVPGARGAVEGILIQQVFESGGSKKCIQVGGEFYTPSKFEDSGSGKNKARSSSGPKPLVRAKGAQGAAPGGGEARLGQQGSVPAPLALPSDPQLHQKNEDECAVCRDGGELICCDGCPRAFHLACLSPPLREIPSGTWRCSSCLQATVQEVQPRAEEPRPQEPPVETPLPPGLRSAGEEVRGPPGEPLAGMDTTLVYKHLPAPPSAAPLPGLDSSALHPLLCVGPEGQQNLAPGARCGVCGDGTDVLRCTHCAAAFHWRCHFPAGTSRPGTGLRCRSCSGDVTPAPVEGVLAPSPARLAPGPAKDDTASHEPALHRDDLESLLSEHTFDGILQWAIQSMARPAAPFPS

# Variants of: B1
# procedure text: AIRE transcriptional activation functional score (insulin promoter-GFP; nonsense median 0, synonymous median 1) (normalised score); higher = higher AIRE activity (more reporter activation)
# assay conditions: with insulin promoter-GFP reporter in HEK293
Overview of reported AIRE transcriptional activation functional score across a group of variants:

Illustrative cases are given below, each with its answer.
Query :: Return reported AIRE transcriptional activation functional score; argument: V256N
Result :: 0.685

Query :: Record: S196H
Result :: 1.01

Next:
Query :: Return reported AIRE transcriptional activation functional score; argument: G440V
Result :: 1.3

Query :: Record: S535Q
Result :: -0.0138

Query :: Record: C434T
Result :: 0.243
